Biological target: human 11beta-HSD1 (Homo sapiens, UniProt P28845)
Sequence (P28845 whole entry): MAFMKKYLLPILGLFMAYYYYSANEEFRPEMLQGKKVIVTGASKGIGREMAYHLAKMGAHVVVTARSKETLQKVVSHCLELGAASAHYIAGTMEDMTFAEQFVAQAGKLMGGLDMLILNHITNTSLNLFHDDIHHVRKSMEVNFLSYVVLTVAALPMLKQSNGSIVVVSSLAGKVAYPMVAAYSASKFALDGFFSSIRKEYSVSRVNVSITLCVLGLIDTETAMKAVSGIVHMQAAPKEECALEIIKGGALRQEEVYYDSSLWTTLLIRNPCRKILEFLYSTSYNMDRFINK
metric_name: pIC50
# reply with the number alone; pIC50 is -log10 of concentration in mol/L

// query State its pIC50 for this molecule: "FC(F)(F)c1ccccc1-c1cc2c(nn1)CCCCCC2"
// result 8.52
